# credit: paper PMC3795721

- study-system: WRKY33 cDBD (Arabidopsis thaliana, UniProt Q8S8P5 345-449)
- Sequence (Q8S8P5 other isoform, or with tags, fused parts or gaps): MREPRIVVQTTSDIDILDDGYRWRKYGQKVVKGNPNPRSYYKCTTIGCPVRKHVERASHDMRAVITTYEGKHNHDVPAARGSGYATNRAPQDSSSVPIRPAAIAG
- procedure-details: DPI-ELISA; DPI-ELISA, streptavidin 384-well plate, 1-2 pmol biotinylated dsDNA per well, crude native E. coli extract, anti-His detection; buffer as in Brand et al. [46],; high values mean tight binding
- recorded-conditions: tags: C-terminal His (pET-DEST42); label: 5' biotin on forward strand
binding signal values for the binders below.

binder: 43 (dsDNA) DNA 1: AAAAAAAGGTCATTGCTGCTGGTGTTAAAA DNA 2: TTTTAACACCAGCAGCAATGACCTTTTTTT
result-value: 2.19 relative normalized absorbance
//
binder: 83 (dsDNA) DNA 1: AAAAAATATGTAGCTGCCGTTACGCTAAAA DNA 2: TTTTAGCGTAACGGCAGCTACATATTTTTT
result-value: 2.34 relative normalized absorbance
//
binder: 92 (dsDNA) DNA 1: AAAAAAAGTCTGCGGCTGCAGGGCGGAAAA DNA 2: TTTTCCGCCCTGCAGCCGCAGACTTTTTTT
result-value: 2.36 relative normalized absorbance
//
binder: 260 (dsDNA) DNA 1: AAAAAAGTATAACGTGTTGTTGACCGAAAA DNA 2: TTTTCGGTCAACAACACGTTATACTTTTTT
result-value: 2.33 relative normalized absorbance
//
binder: 97 (dsDNA) DNA 1: AAAAAAAGTTTGACCTTGGCGTTCGTAAAA DNA 2: TTTTACGAACGCCAAGGTCAAACTTTTTTT
result-value: 2.28 relative normalized absorbance
//
binder: 233 (dsDNA) DNA 1: AAAAAAGGTCCAGTCCACGTCATCAGAAAA DNA 2: TTTTCTGATGACGTGGACTGGACCTTTTTT
result-value: 2.34 relative normalized absorbance
//
binder: 101 (dsDNA) DNA 1: AAAAAAGTCTAAGGACTTATAGCTGTAAAA DNA 2: TTTTACAGCTATAAGTCCTTAGACTTTTTT
result-value: 2.37 relative normalized absorbance
//
binder: 88 (dsDNA) DNA 1: AAAAAATCAACCATTATGGTATTACTAAAA DNA 2: TTTTAGTAATACCATAATGGTTGATTTTTT
result-value: 2.02 relative normalized absorbance
//
binder: 160 (dsDNA) DNA 1: AAAAAACGGTCGCGATCGTTAATGATAAAA DNA 2: TTTTATCATTAACGATCGCGACCGTTTTTT
result-value: 2.05 relative normalized absorbance
//
binder: 117 (dsDNA) DNA 1: AAAAAAATCAGCCTGACTCTGGGCGTAAAA DNA 2: TTTTACGCCCAGAGTCAGGCTGATTTTTTT
result-value: 2.01 relative normalized absorbance

Record 202 (dsDNA) DNA 1: AAAAAAGATTGACTCGTCTTACTCGAAAAA DNA 2: TTTTTCGAGTAAGACGAGTCAATCTTTTTT , field binding signal: 2.3 relative normalized absorbance
